Values compiled from paper PMC5540273.

Reported values of %Inh for individual entries
- Tested on: NEK4;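 also: KINOMEscan kinase panel screen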
- experimental.conditions: concentration: 1 μM,replicates: in singlicate; n = 1

Nc1nc(Nc2ccccc2)cc(-c2ccc3c(N)n[nH]c3c2)n1 = 5%
Cc1ccc(-n2nc(C(C)(C)C)cc2NC(=O)Nc2ccc(OCCN3CCOCC3)c3ccccc23)cc1 = 0%
Cl.Cl.NC[C@H](CC1CCCCC1)NC(=O)c1cc(Br)c(-c2ccnc3[nH]ccc23)s1 = 23%

Endpoint output: %Inh of Cl.Oc1cc(-c2nc(-c3ccccc3)[nH]c2-c2ccncc2)ccc1Cl . Value?
10%

Endpoint output: %Inh of Cc1occc1-c1nc(N)c(OC[C@@H](N)Cc2c[nH]c3ccccc23)cc1-c1cc2c(C)n[nH]c2cn1 . Value?
0%

Endpoint output: %Inh of CCn1c(-c2nonc2N)nc2c(C#CC(C)(C)O)nc(OCCN)cc21.Cl.Cl . Value?
20%

Endpoint output: %Inh of COc1ccc(C[C@@H](CN)NC(=O)c2cc(Br)c(-c3ccnc4[nH]ccc34)s2)cc1.Cl.Cl . Value?
1%
